// data source = ChEMBL document CHEMBL2346569

tested on: Human immunodeficiency virus 1; assay: Antiviral activity against HIV1 harboring reverse transcriptase L100I/K103N double mutant infected in human MT4 cells assessed as protection against virus-induced cytopathicity after 5 days by MTT assay; type: functional, organism-based; conditions: Human immunodeficiency virus 1, MT4, 120 h
pEC50: −log10 of the molar value.
metric: pEC50

query smiles	metric	test result
Cc1cc(C#N)cc(C)c1Oc1nc(Nc2ccc(C#N)cc2)c(=O)n(C)c1C	pEC50	6.80

----------
system: Human immunodeficiency virus 1; test: Antiviral activity against wild type HIV1 3B infected in human MT4 cells assessed as protection against virus-induced cytopathicity after 5 days by MTT assay; format: functional, organism-based; settings: Human immunodeficiency virus 1, 3B, MT4, 120 h
pEC50: −log10 of the molar value.

query smiles	lt gt eq	pEC50
Cc1cc(Br)c(Oc2cc(Nc3ccc(C#N)cc3)n[nH]c2=O)c(Br)c1	=	6.68
N#Cc1ccc(Nc2cc(Oc3c(Cl)cc(Cl)cc3Cl)c(=O)[nH]n2)cc1	≤	5.04
Cc1cc(C)c(Oc2cc(Nc3cccc(Cl)c3)n[nH]c2=O)c(C)c1	=	4.84
O=C1Nc2ccc(Cl)cc2[C@@](C#CC2CC2)(C(F)(F)F)O1	=	8.15
Cc1ccc(Nc2cc(Oc3c(C)cc(C)cc3C)c(=O)[nH]n2)cc1	=	5.81
N#Cc1ccc(Nc2cc(Oc3c(Cl)cccc3Cl)c(Cl)nn2)cc1	=	6.66
Cc1cc(C#N)cc(C)c1Oc1cc(Nc2ccc(C#N)cc2)nnc1Cl	=	6.84
Cc1cc(C)c(Oc2cc(Nc3ccc(Cl)cc3)n[nH]c2=O)c(C)c1	=	6.11
Cc1cc(C)c(Oc2cc(Nc3ccc(Cl)cc3)nnc2Cl)c(C)c1	=	6.86
Cc1cc(C)c(Oc2cc(Nc3ccc([N+](=O)[O-])cc3)n[nH]c2=O)c(C)c1	=	5.29
Cc1cc(C)c(Oc2cc(Nc3ccc(C#N)cc3)nnc2Cl)c(C)c1	=	7.10
Cc1cc(C)c(Oc2cc(N(C)c3ccc(C#N)cc3)nn(C)c2=O)c(C)c1	=	5.47
Cc1cc(Br)cc(C)c1Oc1cc(Nc2ccc(C#N)cc2)nnc1Cl	=	6.40
Cc1cc(C#N)cc(C)c1Oc1cc(Nc2ccc(C#N)cc2)n[nH]c1=O	=	5.55
Cc1cc(C)c(Oc2cc(Nc3ccc([N+](=O)[O-])cc3)nnc2Cl)c(C)c1	<	6.03
CC(C)Nc1cccnc1N1CCN(C(=O)c2cc3cc(NS(C)(=O)=O)ccc3[nH]2)CC1	=	7.38
COc1ccc(Nc2cc(Oc3c(C)cc(C)cc3C)c(=O)[nH]n2)cc1	=	5.80
Cc1cccc(C)c1Oc1cc(Nc2ccc(C#N)cc2)nnc1Cl	=	6.27
Cc1cc(C)c(Oc2cc(Nc3ccc(C#N)cc3)nn(C)c2=O)c(C)c1	=	5.94
N#Cc1ccc(Nc2cc(Oc3c(Br)cc(Br)cc3Br)c(=O)[nH]n2)cc1	=	6.20
Cc1ccc(Nc2cc(Oc3c(C)cc(C)cc3C)c(Cl)nn2)cc1	=	6.70
Cc1cc(Br)cc(C)c1Oc1cc(Nc2ccc(C#N)cc2)n[nH]c1=O	=	5.92
Cc1cccc(C)c1Oc1cc(Nc2ccc(C#N)cc2)n[nH]c1=O	=	5.72
N#Cc1ccc(Nc2cc(Oc3c(Cl)cc(Cl)cc3Cl)c(Cl)nn2)cc1	=	6.81
Cc1cc(C)c(Oc2cc(Nc3ccc(C#N)cc3)n[nH]c2=O)c(C)c1	=	6.59
COc1cccc(OC)c1Oc1cc(Nc2ccc(C#N)cc2)nnc1Cl	<	5.54
N#Cc1ccc(Nc2cc(Oc3c(Br)cc(Br)cc3Br)c(Cl)nn2)cc1	=	6.74
Cc1cc(Br)c(Oc2cc(Nc3ccc(C#N)cc3)nnc2Cl)c(Br)c1	=	7.47

----------
experiment: Cytotoxicity against mock-infected human MT4 cells assessed as cell viability after 5 days by MTT assay; type: cell-based
Listed next: entries and their corresponding log10(CC50 at 120 h).
metric: log10(CC50 at 120 h) (log10 of the value in µM)

query smiles	metric	test result
N#Cc1ccc(Nc2cc(Oc3c(Br)cc(Br)cc3Br)c(=O)[nH]n2)cc1	log10(CC50 at 120 h)	2.14
Cc1cc(C)c(Oc2cc(Nc3ccc(C#N)cc3)nn(C)c2=O)c(C)c1	log10(CC50 at 120 h)	2.16
N#Cc1ccc(Nc2cc(Oc3c(Cl)cc(Cl)cc3Cl)c(Cl)nn2)cc1	log10(CC50 at 120 h)	1.27
COc1ccc(Nc2cc(Oc3c(C)cc(C)cc3C)c(=O)[nH]n2)cc1	log10(CC50 at 120 h)	0.77
N#Cc1ccc(Nc2cc(Oc3c(Cl)cccc3Cl)c(Cl)nn2)cc1	log10(CC50 at 120 h)	1.97
Cc1ccc(Nc2cc(Oc3c(C)cc(C)cc3C)c(=O)[nH]n2)cc1	log10(CC50 at 120 h)	2.27
N#Cc1ccc(Nc2cc(Oc3c(Br)cc(Br)cc3Br)c(Cl)nn2)cc1	log10(CC50 at 120 h)	1.35
Cc1cc(C)c(Oc2cc(Nc3cccc(Cl)c3)n[nH]c2=O)c(C)c1	log10(CC50 at 120 h)	2.08
COc1cccc(OC)c1Oc1cc(Nc2ccc(C#N)cc2)nnc1Cl	log10(CC50 at 120 h)	0.46
Cc1ccc(Nc2cc(Oc3c(C)cc(C)cc3C)c(Cl)nn2)cc1	log10(CC50 at 120 h)	2.39
Cc1cccc(C)c1Oc1cc(Nc2ccc(C#N)cc2)nnc1Cl	log10(CC50 at 120 h)	2.46
Cc1cc(Br)c(Oc2cc(Nc3ccc(C#N)cc3)nnc2Cl)c(Br)c1	log10(CC50 at 120 h)	1.28
Cc1cc(C)c(Oc2cc(Nc3ccc(Cl)cc3)nnc2Cl)c(C)c1	log10(CC50 at 120 h)	2.32
Cc1cc(Br)cc(C)c1Oc1cc(Nc2ccc(C#N)cc2)nnc1Cl	log10(CC50 at 120 h)	1.92
Cc1cc(Br)c(Oc2cc(Nc3ccc(C#N)cc3)n[nH]c2=O)c(Br)c1	log10(CC50 at 120 h)	2.19
N#Cc1ccc(Nc2cc(Oc3c(Cl)cc(Cl)cc3Cl)c(=O)[nH]n2)cc1	log10(CC50 at 120 h)	1.54
Cc1cc(C)c(Oc2cc(Nc3ccc(C#N)cc3)n[nH]c2=O)c(C)c1	log10(CC50 at 120 h)	1.67
Cc1cc(C)c(Oc2cc(Nc3ccc([N+](=O)[O-])cc3)n[nH]c2=O)c(C)c1	log10(CC50 at 120 h)	1.57
Cc1cccc(C)c1Oc1cc(Nc2ccc(C#N)cc2)n[nH]c1=O	log10(CC50 at 120 h)	2.31
Cc1cc(C)c(Oc2cc(Nc3ccc(Cl)cc3)n[nH]c2=O)c(C)c1	log10(CC50 at 120 h)	0.78
Cc1cc(Br)cc(C)c1Oc1cc(Nc2ccc(C#N)cc2)n[nH]c1=O	log10(CC50 at 120 h)	1.29

----------
test: Selectivity index, ratio of CC50 for mock-infected human MT4 cells to EC50 for wild type HIV1 3B; details: mock-infected MT4 cells
metric: selectivity ratio

query smiles	lt gt eq	test result
Cc1cc(Br)c(Oc2cc(Nc3ccc(C#N)cc3)nnc2Cl)c(Br)c1	=	565
Cc1cc(C)c(Oc2cc(Nc3ccc(C#N)cc3)nn(C)c2=O)c(C)c1	=	123
Cc1cc(C)c(Oc2cc(Nc3ccc(Cl)cc3)n[nH]c2=O)c(C)c1	=	8
Cc1cc(Br)cc(C)c1Oc1cc(Nc2ccc(C#N)cc2)n[nH]c1=O	=	16
Cc1cc(C)c(Oc2cc(Nc3cccc(Cl)c3)n[nH]c2=O)c(C)c1	=	8
CC(C)Nc1cccnc1N1CCN(C(=O)c2cc3cc(NS(C)(=O)=O)ccc3[nH]2)CC1	>	1030
Cc1cc(C)c(Oc2cc(Nc3ccc([N+](=O)[O-])cc3)n[nH]c2=O)c(C)c1	=	7
Cc1cccc(C)c1Oc1cc(Nc2ccc(C#N)cc2)n[nH]c1=O	=	108
Cc1cccc(C)c1Oc1cc(Nc2ccc(C#N)cc2)nnc1Cl	=	537
N#Cc1ccc(Nc2cc(Oc3c(Br)cc(Br)cc3Br)c(Cl)nn2)cc1	=	124
Cc1ccc(Nc2cc(Oc3c(C)cc(C)cc3C)c(=O)[nH]n2)cc1	=	119

----------
Listed next: entries and their corresponding CC50 at 120 h.
assay: Cytotoxicity against mock-infected human MT4 cells assessed as cell viability after 5 days by MTT assay; format: cell-based
metric: CC50 at 120 h

compound	test result
Cc1cc(C#N)cc(C)c1Oc1cc(Nc2ccc(C#N)cc2)n[nH]c1=O	272 µM
Cc1cc(C#N)cc(C)c1Oc1nc(Nc2ccc(C#N)cc2)nc(N)c1Br [ETRAVIRINE]	> 4.6 µM
Cc1ccnc2c1NC(=O)c1cccnc1N2C1CC1 [NEVIRAPINE]	> 14.9 µM
